# System: MS2 coat protein
# experimentalProtocol: apparent KD of MS2 coat protein; designed switch direction (-1 OFF switch, 1 ON switch): -1; higher = weaker reporter binding
# conditionDetails: input ligand: FMN 200 uM
Give apparent KD of MS2 coat protein for every item shown.
One number for each entry, in nM.

recordSequence	studySystem	reportedMetric	u	measurement
UGUGCGUCAGGAUAUUCUACUUAUUACAUGAGGAUCACCCAUGUGAAUGUACAAGGGUGUGAAGAAGGGACUUGUC [LRO-Excl5-05-mod A17d by Omei] (Eterna round: R97, puzzle: Exclusion 5)	MS2 coat protein	apparent KD of MS2 coat protein	nM	194
GUCAGCUCGUCAGGAUAUAUAUACAUGAGGAUCACCCAUGUAAGAUCAGGCUUCGGCCAAUGUAUAUAGAAGGGACGAGCUGAC [ENG2/11-B1] (Eterna round: R96, puzzle: Exclusion NG 2)	MS2 coat protein	apparent KD of MS2 coat protein	nM	500
AAUAUCGUAGGAUAUUAGUGCUCAGACAUGAGGAUCACCCAUGUUUGGUGGGUUGGAGAAUGAGAAGGGCGAUGAA [EX5 #17] (Eterna round: R97, puzzle: Exclusion 5)	MS2 coat protein	apparent KD of MS2 coat protein	nM	376
UUUUAGCAAGCGAGUAUUAACAUGAGGAUCACCCAUGUGCAUCCAGUAUUACUUUUAGAUCUUGCUCGUCUUAUAUA [JR_STOV1_v2_Sub083] (Eterna round: R97, puzzle: Sensor, turn-off variant 1)	MS2 coat protein	apparent KD of MS2 coat protein	nM	339

Let us examine a further case.
Short answer for UCCGGACAUGAGGAUCACCCAUGUUAGGAUAUCUGAGGUGUGCCAGGAUCCUGGGCCCAGAGAAGGAAUAUGGC [Eternabot (L2) Solution 28] (Eterna round: R97, puzzle: Exclusion 1) : apparent KD of MS2 coat protein was 21.7

###

# Test system: MS2 coat protein
# experimentalProtocol: apparent KD of MS2 coat protein; designed switch direction (-1 OFF switch, 1 ON switch): 1; higher = weaker reporter binding
# conditionDetails: input ligand: FMN 200 uM
Decide by apparent KD of MS2 coat protein: equal to or exceeding 0.1 µM means met, less means not met.

Answered examples (3):
recordSequence	assignedLabel
GGUCCAUCAUGAGGAUAUGGCACCUUAUUGGUGCCAGAAGGCAUGUAAAUUAUAAUAAAACAUGAGGAUCACCCAUGUUGGACC [Eli NG1ss - 97] (Eterna round: R96, puzzle: Same State NG 1)	met
GGUGCGAAUAAAGCCUACAUGAGGAUCACCCAUGUAUGUAGGCAGGAUAUCGUAUGCAAAGCAUACGAGAAGGGCUGUCGCACC [Mat - Same State NG 3 - JL Mod - D47] (Eterna round: R96, puzzle: Same State NG 3)	not met
AUUGCUUUCGCAGGAUAUGAUGCGAAAAUUGCGUCAGAAGGGUGGAGUCUCUCAUUGCUAGAGGACAUGAGGAUCACCCAUGUC [SameState NG1 #85] (Eterna round: R96, puzzle: Same State NG 1)	met

Query: Say whether GUUACAUGAGGAUCACCCAUGUGUGUGUGGGAGUAAGUGUCUUAGGAUAUCUAUGAUUUAAGUUAAGAGAAGGAAGAUUGUUGU [SS-NG3-LRO01] (Eterna round: R96, puzzle: Same State NG 3) shows apparent KD of MS2 coat protein of 0.1 µM or more.
Result: met

Query: Entry UGGUACAUGGGAGGAUAUCUCAUGGUGACAUGAGGAUCACCCAUGUAGUUGGAGCCGAAAGGCUGAGAGAAGGCCCAUGUACCU [JL SSNG1 3.75] (Eterna round: R96, puzzle: Same State NG 2) : is its apparent KD of MS2 coat protein no less than 0.1 µM?
Result: not met

Query: Assess whether reported apparent KD of MS2 coat protein for GUUACAUGAGGAUCACCCAUGUAUGUGUGGGAGUAAGUGUCUUAGGAUAUCUAGUAUUCAAUUUAAGAGAAGGAAGAUUGUUGU [JMF's solution 58] (Eterna round: R96, puzzle: Same State NG 3) sits at 0.1 µM or higher.
Result: met

Query: Is apparent KD of MS2 coat protein for GCUAGGAAUAAAGCCAACAUGAGGAUCACCCAUGUAUGUUGGUAGGAUAUCGUAUGCAAAGCAUACGAGAAGGGCUAACCUAGC [Mat - Same State NG 3 - JL Mod - D69] (Eterna round: R96, puzzle: Same State NG 3) at or above 0.1 µM?
Result: not met

Query: Quick check: does GGAGCCGGCCUAGGAUAUUUCAUAAAAACACAUGAGGAUCACCCAUGUAGGCCAGAAGGCCUUGGGAAGAAGGAGGUCGGCUCC [Loop Effect - C29] (Eterna round: R96, puzzle: Same State NG 2) have apparent KD of MS2 coat protein greater than or equal to 0.1 µM?
Result: not met

Query: Does the reported apparent KD of MS2 coat protein for UCUCGGGUCGUAGGAUAUGUAGGAUAUGUACAUGAGGAUCACCCAUGUCUACCAGAGACAGAAGGACAGAAGGACGAGCCGAGC [pwkr ssNG2 2FMN 1F5s.7] (Eterna round: R96, puzzle: Same State NG 2) fall at or above the 0.1 µM mark?
Result: not met

Query: Check the entry GGCCAGAGUCAAGGAUAUGCUACCGUUUCGGUAGCAGAAGGUGAUCACAUGAGGAUCACCCAUGUAUACGCUGGGAAGCGGGCC [JL SSNG1 3.65] (Eterna round: R96, puzzle: Same State NG 1) : does apparent KD of MS2 coat protein equal or exceed 0.1 µM?
Result: met

meta.source: the supplement of paper PMC9170038
